Tested on: CCRIS mutagenicity, Ames/micronucleus/aberration tests
Test: CCRIS mutagenicity studies
Conditions: Test System: AMES SALMONELLA TYPHIMURIUM; Strain/Indicator: TA97; Metabolic Activation: RAT, LIVER, S-9, AROCLOR 1254 (30%); Method: PREINCUBATION
Calls of active or inactive are those of the source. No rule for the calls is given here.
measurement-type: mutagenic call

1) CCCCCCCCCCCCCCCCCC[N+](C)(C)Cc1ccccc1	inactive; negative
2) C=CC(=O)OCCCCCCOC(=O)C=C	inactive; negative
3) Nc1ccccc1Cl	inactive; negative

---

Tested on: CCRIS mutagenicity, Ames/micronucleus/aberration tests
Test: CCRIS mutagenicity studies
Conditions: Test System: AMES SALMONELLA TYPHIMURIUM; Strain/Indicator: TA100; Metabolic Activation: NONE; Method: PREINCUBATION
From the text: The CCRIS database contains chemical records with carcinogenicity, mutagenicity, tumor promotion, and tumor inhibition test results. It was developed by the National Cancer Institute (NCI). Data are derived from studies cited in primary journals, current awareness tools, NCI reports, and other sources. Test results have been reviewed by experts in carcinogenesis and mutagenesis. CCRIS provides historical information from the years 1985 - 2011. It is no longer updated. […]
Calls of active or inactive are those of the source. No rule for the calls is given here.
Outcome codes: active, inactive

1. CCCCCCC[CH2][Sn]([CH2]CCCCCCC)([S]CC(=O)OCCCCCC(C)C)[S]CC(=O)OCCCCCC(C)C	active
2. COc1ccc(C(=O)Nc2ccccc2)cc1[N+](=O)[O-]	active
3. ClC(Cl)Cl	inactive
4. O=[N+]([O-])c1ccc(N=N/C(=N\Nc2ccc(I)cc2)c2ccccc2)cc1	inactive
5. Cc1ccccc1C#N	inactive
6. O=[N+]([O-])[C-]1CCCC1	active
7. O=S1(=O)CCCC1	inactive
8. CC(C)(C)c1ccc(OCC2CO2)cc1 (centres undefined)	active
9. NCCNCCO	inactive
10. C=C(CC)C(=O)c1ccc(OCC(=O)O)c(Cl)c1Cl	inactive
11. c1ccc(Cn2ccnc2)cc1	inactive
12. Cc1cccc(OP(=O)(Oc2cccc(C)c2)Oc2cccc(C)c2)c1	inactive
13. NCCCN1CCN(CCCN)CC1	inactive
14. CC(Br)C(=O)O (centres undefined)	inactive

---

Tested on: CCRIS mutagenicity, Ames/micronucleus/aberration tests
Experiment: CCRIS mutagenicity studies
Conditions: Test System: AMES SALMONELLA TYPHIMURIUM; Strain/Indicator: TA100; Metabolic Activation: NONE; Method: SUSPENSION/PLATE
Calls of active or inactive are those of the source. How the calls were made is not given here.
Outcome codes: active, inactive

1. CCC[CH2][Sn]([Cl])([Cl])[Cl]	inactive
2. Cc1ccc(N)cc1N=Nc1cc(N)ccc1C	inactive
3. Cc1ccc(N)cc1N	inactive
4. Cc1ccc([N+](=O)[O-])cc1N=[N+]([O-])c1cc([N+](=O)[O-])ccc1C	inactive
5. CCC[CH2][Sn]([Cl])([CH2]CCC)[CH2]CCC	active

---

Tested on: CCRIS mutagenicity, Ames/micronucleus/aberration tests
Test: CCRIS mutagenicity studies
Details: Test System: AMES SALMONELLA TYPHIMURIUM; Strain/Indicator: TA1535; Metabolic Activation: HAMSTER, LIVER, S-9, AROCLOR 1254; Method: PREINCUBATION
Activity calls are given as the source filed them. The rule behind the calls is not given here.
Outcome codes: true (1) (active), false (0) (inactive)

1. COc1cc(CCCS(=O)(=O)O)ccc1O[C@H](Cc1cccc(OC)c1O)CS(=O)(=O)O	false (0)
2. Brc1ccccc1	false (0)
3. Cc1cc(-c2ccc(N)c(C)c2)ccc1N	false (0)
4. CC1(C)C(=O)N(Cl)C(=O)N1Cl	false (0)
5. O=c1[nH]c(=O)[nH]c(=O)[nH]1	false (0)
6. C=CCOCC1CO1 (stereo not given)	true (1)
7. C(=C\c1ccccc1)/c1ccccc1	false (0)
8. CC1CS1 (stereo not given)	false (0)
9. NCC(=O)O	false (0)
10. Nc1ccc(Cl)cc1	false (0)
11. ClC(Cl)Br	false (0)
12. Oc1cc(Cl)cc(Cl)c1	false (0)
13. NS(=O)(=O)c1cc(C(=O)O)c(NCc2ccco2)cc1Cl	false (0)
14. Clc1ccc(Cl)c(Cl)c1Cl	false (0)
15. O=C1CN(/N=C/c2ccc([N+](=O)[O-])o2)C(=O)N1	false (0)
16. Clc1ccc(Cl)c(Cl)c1	false (0)
17. C[Si](C)(Cl)Cl	false (0)
18. O=CCC=O	false (0)
19. CCCCC1C(=O)N(c2ccccc2)N(c2ccccc2)C1=O	false (0)
20. C=C(C)C(=O)O	false (0)
21. CCCCC(CC)COC(=O)c1ccc(N(C)N=O)cc1 (stereo not given)	false (0)
22. Cc1cccc(OP(=O)(Oc2cccc(C)c2)Oc2cccc(C)c2)c1	false (0)
23. Oc1cc2c(cc1O)[C@@H]1c3ccc(O)c(O)c3OC[C@]1(O)C2	false (0)
24. NC(=O)N/N=C/c1ccc([N+](=O)[O-])o1	true (1)
25. Cc1ncc[nH]1	false (0)

Provenance of the data: PubChem BioAssay AID1259407
